subjectOfTest: CRF1R
protocolDetails: cell-based or functional assay
Ends that are not written are not given here.
A collection of binders and their measured CRF1R EC50
measure: CRF1R EC50 (µM)

ZGPPISIDLPAALLRKMIEIEKQEKEKQQAANNRLLLDTI (C-terminal amide) [SEQ ID NO 303]    0.582
NDDPPISIDLPFFLLRNMIEMARIENEREQAGLNAKYLAEV-NH2 [SEQ ID NO 264]    0.705
IVLSLDVVIGLLQILLEQARARAAREQATTNARILARV-NH2 [SEQ ID NO 214]    0.1
ZGPPISIDLPYYLLRKMIEIEKQEKEKQQAANNALLLATI (C-terminal amide) [SEQ ID NO 225]    0.22
ZGPPISIDLPQYLLRKMIEIEKQEKEKQQAANNALLLDTI (C-terminal amide) [SEQ ID NO 224]    1
ZGPPISIDLPQILLRKVIEIEKQEKEKQQAANNALLLATI (C-terminal amide) [SEQ ID NO 299]    1
PSLSIDLPLLLLRTLLELEKTQSQRERAEQNARIFARV-NH2 [SEQ ID NO 333]    1
NDDPPISIDLPLQLLRNMIEMARIENEREQAGLNAKYLAEV-NH2 [SEQ ID NO 270]    1
ZGPPISIDLPQYLLRKMIEIEKQEKEKQQAANNALLLATI (C-terminal amide) [SEQ ID NO 227]    0.918
ZGPPISIDLPYWLLRKMIEIEKQEKEKQQAANNALLLDTI (C-terminal amide) [SEQ ID NO 310]    1
ZGPPISIDLPIILLRKVIEIEKQEKEKQQAANNARLLARI (C-terminal amide) [SEQ ID NO 295]    1
ZGPPISIDVPLQLLRKVIEIEKQEKEKQQAANNARLLDTI (C-terminal amide) [SEQ ID NO 380]    1
